Observable: pKi
Reminder that pKi is minus the log10 of a molar concentration.

Query string: For cGMP-inhibited 3',5'-cyclic phosphodiesterase 3B (Homo sapiens, UniProt Q13370), provide pKi of CNc1ncnc2c1ncn2Cc1ccccc1F [BW-A78U] please.
Result string: 4.46

###

Experimental protocol: Inhibition of PDE9 (unknown origin) by fluorescent based assay
Parameters: species or system Homo sapiens
Observable: pIC50
Reminder that pIC50 is minus the log10 of a molar concentration.

Query string: Param item = C[C@@H](Nc1nc2c(cnn2C2CCCC2)c(=O)[nH]1)c1ccc(Cl)cc1 ; retrieve measured pIC50.
Result string: 7.24

###

Observable: pIC50
Reminder that pIC50 is minus the log10 of a molar concentration.

Query string: For cGMP-specific 3',5'-cyclic phosphodiesterase (Homo sapiens, UniProt O76074), provide pIC50 of CNc1ncnc2c1ncn2Cc1ccccc1F [BW-A78U] please.
Result string: 5.19

###

Experimental system: cGMP-dependent 3',5'-cyclic phosphodiesterase (Homo sapiens)
Sequence (O00408 whole entry): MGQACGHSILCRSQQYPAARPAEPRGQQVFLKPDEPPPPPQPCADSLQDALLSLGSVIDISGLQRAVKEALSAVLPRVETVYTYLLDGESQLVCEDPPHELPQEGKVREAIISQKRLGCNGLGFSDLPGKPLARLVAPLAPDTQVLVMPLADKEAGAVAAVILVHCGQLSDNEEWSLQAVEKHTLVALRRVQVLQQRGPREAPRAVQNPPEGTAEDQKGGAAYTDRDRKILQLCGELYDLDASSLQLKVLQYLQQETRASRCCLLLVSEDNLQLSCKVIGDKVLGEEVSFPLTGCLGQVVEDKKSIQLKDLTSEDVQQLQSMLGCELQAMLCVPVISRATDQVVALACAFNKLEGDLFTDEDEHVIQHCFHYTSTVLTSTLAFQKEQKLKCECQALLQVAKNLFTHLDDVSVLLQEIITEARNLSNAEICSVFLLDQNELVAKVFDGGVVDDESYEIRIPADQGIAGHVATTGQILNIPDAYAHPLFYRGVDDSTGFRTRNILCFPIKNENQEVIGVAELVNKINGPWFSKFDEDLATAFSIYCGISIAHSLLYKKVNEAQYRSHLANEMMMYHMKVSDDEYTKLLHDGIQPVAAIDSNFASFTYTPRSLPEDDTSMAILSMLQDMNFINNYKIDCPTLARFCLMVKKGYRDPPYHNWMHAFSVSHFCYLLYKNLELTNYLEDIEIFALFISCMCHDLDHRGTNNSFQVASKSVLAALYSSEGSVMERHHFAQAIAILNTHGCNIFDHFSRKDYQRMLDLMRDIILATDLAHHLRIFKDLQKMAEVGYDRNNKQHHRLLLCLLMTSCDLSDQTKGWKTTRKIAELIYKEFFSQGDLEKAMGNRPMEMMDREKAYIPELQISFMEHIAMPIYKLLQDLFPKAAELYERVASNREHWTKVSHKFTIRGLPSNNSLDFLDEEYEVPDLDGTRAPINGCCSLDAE
Experimental protocol: Inhibition of full-length recombinant human PDE2A using [3H]-cGMP as substrate incubated for 10 mins by SPA assay
Observable: IC50

Query string: Param item = Cn1c(=O)c2c(Nc3ccc(F)cc3)n(Cc3ccc(S(C)(=O)=O)cc3)nc2n(CC2CC2)c1=O ; retrieve measured IC50.
Result string: 8.52 µM

###

Observable: IC50

Query string: For High affinity 3',5'-cyclic-AMP phosphodiesterase 7A (Homo sapiens, UniProt Q13946), provide IC50 of C[C@@H](Nc1nc2c(cnn2C(C)(C)C)c(=O)n1Cc1ccc(F)cc1)c1ccc(Cl)cc1 please.
Result string: > 10 µM

Query string: For High affinity 3',5'-cyclic-AMP phosphodiesterase 7A (Homo sapiens, UniProt Q13946), provide IC50 of Cn1c(=O)c2c(Nc3ccc(F)cc3)n(Cc3ccc(S(C)(=O)=O)cc3)nc2n(CC2CC2)c1=O please.
Result string: > 2.5 µM

###

Experimental system: High affinity cGMP-specific 3',5'-cyclic phosphodiesterase 9A (Homo sapiens, UniProt O76083)
Sequence (O76083 whole entry): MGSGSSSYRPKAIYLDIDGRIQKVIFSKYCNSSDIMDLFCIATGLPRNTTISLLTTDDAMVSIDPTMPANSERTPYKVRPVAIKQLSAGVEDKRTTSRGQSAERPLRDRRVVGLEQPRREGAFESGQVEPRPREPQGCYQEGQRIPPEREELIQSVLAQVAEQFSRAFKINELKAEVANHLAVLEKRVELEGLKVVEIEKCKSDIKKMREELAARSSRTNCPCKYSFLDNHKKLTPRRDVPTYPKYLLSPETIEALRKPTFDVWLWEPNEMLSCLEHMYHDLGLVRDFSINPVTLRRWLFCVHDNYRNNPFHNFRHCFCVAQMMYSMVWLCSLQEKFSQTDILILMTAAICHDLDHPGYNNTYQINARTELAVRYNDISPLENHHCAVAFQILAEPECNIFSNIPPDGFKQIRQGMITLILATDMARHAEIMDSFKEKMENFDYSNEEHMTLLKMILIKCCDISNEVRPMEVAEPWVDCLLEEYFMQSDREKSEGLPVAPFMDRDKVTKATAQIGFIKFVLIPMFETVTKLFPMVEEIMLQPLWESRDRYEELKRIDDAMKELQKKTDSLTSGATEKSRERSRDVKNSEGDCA
Observable: IC50

Query string: Param item = C[C@@H](Nc1nc2c(cnn2C(C)(C)C)c(=O)n1Cc1ccc(F)cc1)c1ccc(Cl)cc1 ; retrieve measured IC50.
Result string: > 10 µM

###

Experimental system: Dual specificity calcium/calmodulin-dependent 3',5'-cyclic nucleotide phosphodiesterase 1B (Homo sapiens)
Sequence (Q01064 whole entry): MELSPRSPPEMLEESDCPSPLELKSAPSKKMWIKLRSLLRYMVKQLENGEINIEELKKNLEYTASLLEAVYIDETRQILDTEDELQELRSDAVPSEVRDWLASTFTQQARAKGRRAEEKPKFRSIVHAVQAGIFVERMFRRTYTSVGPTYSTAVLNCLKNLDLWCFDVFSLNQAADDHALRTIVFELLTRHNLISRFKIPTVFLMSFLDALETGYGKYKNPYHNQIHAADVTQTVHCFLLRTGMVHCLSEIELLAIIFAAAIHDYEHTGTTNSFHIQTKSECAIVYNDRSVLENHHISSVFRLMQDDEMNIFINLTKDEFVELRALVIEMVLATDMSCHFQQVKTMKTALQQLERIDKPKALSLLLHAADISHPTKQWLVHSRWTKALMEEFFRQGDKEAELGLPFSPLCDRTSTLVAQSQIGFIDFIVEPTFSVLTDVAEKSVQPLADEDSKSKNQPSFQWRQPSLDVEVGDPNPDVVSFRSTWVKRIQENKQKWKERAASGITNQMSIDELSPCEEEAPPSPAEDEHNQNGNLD
Experimental protocol: Inhibition of PDE1B (unknown origin) using [3H]-cAMP as substrate incubated for 1 hr by SPA assay
Observable: pIC50
Reminder that pIC50 is minus the log10 of a molar concentration.

Query string: Param item = COc1ccc2c(N3C[C@@H](Cl)[C@@H]4OC[C@@H](OCc5ccccc5)[C@@H]43)ncnc2c1OC ; retrieve measured pIC50.
Result string: 5.55
